# Tested target: canine TRPM8 (Canis lupus familiaris, UniProt Q1A7N1)
# Construct: expressed in transfected cells
# Sequence (Q1A7N1 1-1104): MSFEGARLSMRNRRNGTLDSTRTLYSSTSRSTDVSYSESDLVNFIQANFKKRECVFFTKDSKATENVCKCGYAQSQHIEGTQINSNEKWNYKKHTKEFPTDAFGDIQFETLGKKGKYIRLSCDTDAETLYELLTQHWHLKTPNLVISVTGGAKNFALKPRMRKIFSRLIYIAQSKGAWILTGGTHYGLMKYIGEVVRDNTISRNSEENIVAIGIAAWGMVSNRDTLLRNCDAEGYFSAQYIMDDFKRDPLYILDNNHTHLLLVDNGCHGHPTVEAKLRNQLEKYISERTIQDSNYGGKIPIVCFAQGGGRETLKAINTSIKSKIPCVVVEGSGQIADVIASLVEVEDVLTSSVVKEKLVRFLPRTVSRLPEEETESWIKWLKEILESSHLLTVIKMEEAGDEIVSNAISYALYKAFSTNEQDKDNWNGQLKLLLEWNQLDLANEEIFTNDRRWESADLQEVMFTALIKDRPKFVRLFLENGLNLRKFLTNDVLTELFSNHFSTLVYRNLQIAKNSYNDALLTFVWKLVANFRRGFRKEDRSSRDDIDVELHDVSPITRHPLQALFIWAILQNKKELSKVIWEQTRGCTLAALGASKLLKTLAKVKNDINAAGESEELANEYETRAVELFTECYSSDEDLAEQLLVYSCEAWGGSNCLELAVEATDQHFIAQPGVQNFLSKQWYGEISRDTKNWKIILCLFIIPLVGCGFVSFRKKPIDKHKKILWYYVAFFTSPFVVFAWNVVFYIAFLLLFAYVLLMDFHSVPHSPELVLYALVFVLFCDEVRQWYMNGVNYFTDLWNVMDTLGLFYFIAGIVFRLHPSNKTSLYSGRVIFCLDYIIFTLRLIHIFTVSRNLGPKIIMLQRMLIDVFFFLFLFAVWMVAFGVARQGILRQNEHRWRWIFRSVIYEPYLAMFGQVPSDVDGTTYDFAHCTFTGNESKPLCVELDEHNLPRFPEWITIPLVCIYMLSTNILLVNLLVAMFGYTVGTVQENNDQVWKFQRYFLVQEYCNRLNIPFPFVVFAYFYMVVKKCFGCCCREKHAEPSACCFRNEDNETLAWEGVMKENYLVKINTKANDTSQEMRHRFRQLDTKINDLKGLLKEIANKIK
# Protocol notes: In vitro canine TRPM8 functional assay (Ca2+-sensitive dye, FLIPR/FDSS, icilin activation)
# Assay type: cell-based
# Condition info: HEK293 cells expressing canine TRPM8, icilin activation; eight-point dose-response; read-out: IC50
Test readout: IC50 (nM)

> print(dat)
                                   molecule  test.readout  unit.tag  test.value
1  CC(C)OP(=O)(OC(C)C)C(Cc1cccc(C(F)(F)F)c1F)c1sc2ccccc2c1Cl (racemic)          IC50        nM          76
2  CC(C)OP(=O)(OC(C)C)C(Cc1ccc(C(F)(F)F)cc1)c1sc2ccccc2c1Cl (stereo not shown)          IC50        nM          72
3  CC(C)OP(=O)(OC(C)C)C(Cc1ccc(F)c(F)c1)c1sc2ccccc2c1C1CC1 (stereo not shown)          IC50        nM          70
4  CC(C)OP(=O)(OC(C)C)C(Cc1ccc(F)c(F)c1)c1sc2ccccc2c1C1CCCC1 (stereo not shown)          IC50        nM         140

* * *

// reported inhibition at 1 µM per item
# Tested target: canine TRPM8 (Canis lupus familiaris, UniProt Q1A7N1)
# Construct: expressed in transfected cells
# Protocol notes: In vitro canine TRPM8 functional assay (Ca2+-sensitive dye, FLIPR/FDSS, icilin activation)
# Assay type: cell-based
# Condition info: HEK293, 1 μM compound; HEK293 cells expressing canine TRPM8, icilin activation; read-out: % I (1 μM)
Test readout: inhibition at 1 µM (%)

> print(dat)
                                    compound  unit.tag  test.value
 1  CC(C)OP(=O)(OC(C)C)C(Cc1ccc(F)c(F)c1)c1sc2ccccc2c1C1CC1 (stereo not shown)         %         100
 2  CC(C)OP(=O)(OC(C)C)C(Cc1ccc(F)c(F)c1)c1nc2ccccc2s1 (stereo not shown)         %         101
 3  Cc1c(C(Cc2ccc(F)c(F)c2)P(=O)(OCC(C)(C)C)OCC(C)(C)C)sc2ccccc12 (stereo not shown)         %         100
 4  Cc1c(C(OCc2ccc(F)c(F)c2)P(=O)(CC(C)C)CC(C)C)sc2ccccc12 (stereo not shown)         %         100
 5  CC(C)OP(=O)(OC(C)C)C(Cc1ccc(F)c(F)c1)c1sc2ccccc2c1Br (stereo not shown)         %          99
 6  CC(C)OP(=O)(OC(C)C)C(Cc1ccc(F)c(F)c1)c1sc2ccccc2c1C(F)(F)F (stereo not shown)         %         100
 7  CC(C)OP(=O)(OC(C)C)C(Br)(Cc1ccc(F)c(F)c1)c1sc2ccccc2c1Br (stereo not shown)         %          80
 8  CCCP(=O)(CCC)C(OCc1ccc(F)c(F)c1)c1sc2ccccc2c1C (stereo not shown)         %         100
 9  Cc1ccc2sc(C(Cc3ccc(F)c(F)c3)P(=O)(OC(C)C)OC(C)C)c(C)c2c1 (stereo not shown)         %          95
10  CC(C)OP(=O)(OC(C)C)C(Cc1ccc(F)c(C(F)(F)F)c1)c1sc2ccccc2c1Br (stereo not shown)         %         103
